Where do these numbers come from? They come from paper PMC3822589.

System: Jak2V617F in HEK-V617F-STAT-Rep. cells
Assay: pSTAT-ZsGreen reporter gene assay
Assay type: cell-based
Settings: read-out: IC50 values, STAT-reporter gene assay; HEK-V617F-STAT-Rep. cells; 24 hrs; mean ± SD
REPORTED_ENDPOINT: IC50 (µM)
Write the answer as a number in µM, unit excluded.

CC(C)(C)c1nc2c3cc[nH]c(=O)c3c3cc(F)ccc3c2[nH]1
0.291

Here is another compound to look at.
Query: Query (compound): Cc1cnc(Nc2ccc(N3CCN(C)CC3)cc2)nc1Nc1cccc(S(=O)(=O)NC(C)(C)C)c1 ; field requested: IC50
Response: 0.156

---

Test system: Phospho-STAT5 (P-STAT5) levels in HEL cells (Jak2V617F)
Experiment: Western blot of phospho-STAT5 in HEL cells
Assay type: cell-based, human
Settings: HEL cells; mean ± SD
REPORTED_ENDPOINT: IC50 values, WB (P-STAT5)

Solved entries (count: 5):
Cc1cc(Nc2cc(N3CCN(C)CC3)nc(Sc3ccc(NC(=O)C4CC4)cc3)n2)[nH]n1 [VX680]
No inhibition
C/C(O)=C(\C#N)C(=O)Nc1cc(Br)ccc1Br [LFM-A13]
No inhibition
N#C/C(=C/c1ccc(O)c(O)c1)C(=O)NCc1ccccc1 [AG490]
No inhibition
CCN(CC)CCNC(=O)c1c(C)[nH]c(/C=C2\C(=O)Nc3ccc(F)cc32)c1C [Sunitinib]
No inhibition
Nc1nc(Nc2ccc(S(N)(=O)=O)cc2)nn1C(=O)c1c(F)cccc1F [JNJ7706621]
No inhibition

Here is another compound to look at.
Query: Query (compound): C[C@H](NC(=O)/C(C#N)=C/c1cccc(Br)n1)c1ccccc1 [WP1066] ; field requested: IC50 values, WB (P-STAT5)
Response: No inhibition

---

System: CD34+ cells of Jak2V617F-positive MPN patients
Assay: Colony forming cell
Type: cell-based, human
Details: single inhibitor; 12–16 days of culture
REPORTED_ENDPOINT: effect on erythroid and myeloid colony growth

CCN(CCCOc1ccc2c(Nc3cc(CC(=O)Nc4cccc(F)c4)n[nH]3)ncnc2c1)CCOP(=O)(O)O
same behaviour
O=C(Nc1cccc(Cl)c1)Nc1ncc(CCNc2ncnc3ccsc23)s1
same behaviour
CO[C@@H](C(=O)N1Cc2n[nH]c(NC(=O)c3ccc(N4CCN(C)CC4)cc3)c2C1)c1ccccc1
same behaviour
